Data origin, for the record: the METLIN SMRT retention time set (Domingo-Almenara et al. 2019)

# RP-LC retention time listing for each entry below
assay: gradient 5% acetonitrile 3 min, to 50% in 2 min, to 85% in 15 min, held 3 min, 100 µL/min; conditions: column: Zorbax Extend-C18 2.1 x 50 mm; eluents: water / acetonitrile, 0.1% formic acid
Dear colleague, please return just the value in s, with no unit written.

COMPOUND | RESULT_UNITS | OBSERVED_VALUE
CCCCCCCCN[C@H](C)[C@@H](O)c1ccc(SC(C)C)cc1 | s | 1030
Cc1nn2c(S(=O)(=O)N3CCSCC3)c(C(C)C)nc2s1 | s | 862
CCC(C)n1c(=O)c2ccccc2n(Cc2nc(-c3cccc(Cl)c3)no2)c1=O (stereo not given) | s | 1270
Cc1ccc(NC(=O)Cc2c(C)nn(-c3nc(-c4ccc(C)cc4)cs3)c2C)cc1 | s | 1270

Reported RP-LC retention time for O=C(c1cccnc1)N1CCC(c2noc(-c3cnccn3)n2)C1 (stereo not given) : what is it? 581

# iterate: CCOc1ccc(CNC(=O)c2c(C)sc3ccn(C)c(=O)c23)cc1 786

Next entry: CCn1cc(-c2ccc(OC)cc2)cc1C(=O)N1CCC(C)CC1 1110

// same read-out, input: COCCNc1cc(-n2ccnc2C)n2nccc2n1 554

Same question for O=C(c1ccc2c(c1)OCO2)N1CCC(F)(F)C(COCC2CC2)C1 (stereo not given) please. 933

Next up: CC1(CNC(=O)c2ccc(Br)cc2)CCOCC1 784
